System: 521955-158-R2-J5-PDC complex spheroid growth
Assay: Anticancer human tumor 521955-158-R2-J5-PDC patient-derived pancreatic carcinoma cell line growth inhibition [AhR]
Conditions: curve of first compound; second compound 10 µM
pIC50: −log10 of the molar value.
// values below are reported pIC50

{"MOLECULE": "CC(C)CC(NC(=O)C(Cc1ccccc1)NC(=O)c1cnccn1)B(O)O (centres undefined) + Cc1ccccc1N=Nc1ccc(NC(=O)c2ccnn2C)c(C)c1", "pIC50": 8.06}
{"MOLECULE": "Nc1ccn(C2OC(CO)C(O)C2(F)F)c(=O)n1 (centres undefined) + Cc1ccccc1N=Nc1ccc(NC(=O)c2ccnn2C)c(C)c1", "pIC50": 6.47}
{"MOLECULE": "Nc1ccccc1NC(=O)c1ccc(CNC(=O)OCc2cccnc2)cc1 + Cc1ccccc1N=Nc1ccc(NC(=O)c2ccnn2C)c(C)c1", "pIC50": 5.14}
{"MOLECULE": "CC(C)CC(NC(=O)C(Cc1ccccc1)NC(=O)c1cnccn1)B(O)O (centres undefined) + Cc1cncc(-c2nc(NCCc3c[nH]c4ccccc34)c3ncn(C(C)C)c3n2)c1", "pIC50": 8.19}

###

Test system: 521955-158-R2-J5-PDC complex spheroid growth
Assay: Anticancer human tumor 521955-158-R2-J5-PDC cell line growth inhibition [AhR]
Settings: second compound 0.316 µM; first compound 0.0316 µM; stronger effect = lower value

{"COMPOUND": "COc1cc(Nc2ncc3c(n2)-c2ccc(Cl)cc2C(c2c(F)cccc2OC)=NC3)ccc1C(=O)O + CC(CO)NC(=O)c1cc(-c2ccc(Cl)cc2)nn(-c2cnn(C)c2)c1=O", "viability, T/C / %": 91.3}
{"COMPOUND": "CC1COCCN1c1cc(-c2ccnn2C)c2ccnc(-c3ccn[nH]3)c2n1 (stereo unspecified) + Cc1cncc(-c2nc(NCCc3c[nH]c4ccccc34)c3ncn(C(C)C)c3n2)c1", "viability, T/C / %": 117}
{"COMPOUND": "Nc1ccn(C2OC(CO)C(O)C2(F)F)c(=O)n1 (stereo unspecified) + Cc1cncc(-c2nc(NCCc3c[nH]c4ccccc34)c3ncn(C(C)C)c3n2)c1", "viability, T/C / %": 87.5}
{"COMPOUND": "NS(=O)(=O)OCC1CC(n2ccc3c(NC4CCc5ccccc54)ncnc32)CC1O (stereo unspecified) + CC(CO)NC(=O)c1cc(-c2ccc(Cl)cc2)nn(-c2cnn(C)c2)c1=O", "viability, T/C / %": 93.1}
{"COMPOUND": "O=C(c1cc(Cc2n[nH]c(=O)c3ccccc23)ccc1F)N1CCN(C(=O)C2CC2)CC1 + Cc1cncc(-c2nc(NCCc3c[nH]c4ccccc34)c3ncn(C(C)C)c3n2)c1", "viability, T/C / %": 101}
{"COMPOUND": "Nc1ncn(C2CC(O)C(CO)O2)c(=O)n1 (stereo unspecified) + CC(CO)NC(=O)c1cc(-c2ccc(Cl)cc2)nn(-c2cnn(C)c2)c1=O", "viability, T/C / %": 107}

###

Test system: 521955-158-R2-J5-PDC complex spheroid growth
Test: Anticancer human tumor 521955-158-R2-J5-PDC cell line growth inhibition [AhR];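 for viability, T/C: spheroids mix tumor cells with HUVEC endothelium and human MSC stroma; luminescence taken as viability surrogate after a week of drug exposure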
Conditions: second compound 10 µM; first compound 0.00949 µM; stronger effect = lower value

{"MOLECULE": "O=C(C=Cn1cnc(-c2cc(C(F)(F)F)cc(C(F)(F)F)c2)n1)NNc1cnccn1 + Cc1ccccc1N=Nc1ccc(NC(=O)c2ccnn2C)c(C)c1", "UNIT_OF_MEASURE": "%", "viability, T/C": 91}
{"MOLECULE": "CC(C)CC(NC(=O)C(Cc1ccccc1)NC(=O)c1cnccn1)B(O)O (stereo not drawn) + Cc1ccccc1N=Nc1ccc(NC(=O)c2ccnn2C)c(C)c1", "UNIT_OF_MEASURE": "%", "viability, T/C": 42.7}
{"MOLECULE": "O=C(C=Cn1cnc(-c2cc(C(F)(F)F)cc(C(F)(F)F)c2)n1)NNc1cnccn1 + Cc1cncc(-c2nc(NCCc3c[nH]c4ccccc34)c3ncn(C(C)C)c3n2)c1", "UNIT_OF_MEASURE": "%", "viability, T/C": 38.3}

###

System: 521955-158-R2-J5-PDC complex spheroid growth
Assay: Anticancer human tumor 521955-158-R2-J5-PDC cell line growth inhibition [AhR];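 for viability, T/C: spheroids mix tumor cells with HUVEC endothelium and human MSC stroma; luminescence taken as viability surrogate after a week of drug exposure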
Conditions: second compound 10 µM; first compound 10 µM; stronger effect = lower value
// values below are reported viability, T/C

{"COMPOUND": "COc1ccc([C@@H](O)c2cc(-c3ncnc4cc(N5CCOCC5)ccc34)c(F)cc2Cl)nn1 + Cc1ccccc1N=Nc1ccc(NC(=O)c2ccnn2C)c(C)c1", "viability, T/C, %": 49.9}
{"COMPOUND": "COc1cccc2c1C(=O)c1c(O)c3c(c(O)c1C2=O)CC(O)(C(=O)CO)CC3OC1CC(N)C(O)C(C)O1 (stereo not drawn) + CC(CO)NC(=O)c1cc(-c2ccc(Cl)cc2)nn(-c2cnn(C)c2)c1=O", "viability, T/C, %": 13.8}
{"COMPOUND": "COc1cc(C2c3cc4c(cc3C(OC3OC5COC(C)OC5C(O)C3O)C3COC(=O)C23)OCO4)cc(OC)c1O (stereo not drawn) + CC(CO)NC(=O)c1cc(-c2ccc(Cl)cc2)nn(-c2cnn(C)c2)c1=O", "viability, T/C, %": 14.2}

###

System: 521955-158-R2-J5-PDC complex spheroid growth
Assay: Anticancer human tumor 521955-158-R2-J5-PDC cell line growth inhibition [AhR];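 for viability, T/C: spheroids mix tumor cells with HUVEC endothelium and human MSC stroma; luminescence taken as viability surrogate after a week of drug exposure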
Settings: second compound 0.1 µM; first compound 0.0316 µM; stronger effect = lower value

{"COMPOUND": "CC1COCCN1c1cc(-c2ccnn2C)c2ccnc(-c3ccn[nH]3)c2n1 (configuration not stated) + CC(CO)NC(=O)c1cc(-c2ccc(Cl)cc2)nn(-c2cnn(C)c2)c1=O", "viability, T/C [%]": 98.3}
{"COMPOUND": "O=C(C=Cc1cccc(S(=O)(=O)Nc2ccccc2)c1)NO + CC(CO)NC(=O)c1cc(-c2ccc(Cl)cc2)nn(-c2cnn(C)c2)c1=O", "viability, T/C [%]": 108}
{"COMPOUND": "CC1COCCN1c1cc(C2(S(C)(=N)=O)CC2)nc(-c2ccnc3[nH]ccc23)n1 (configuration not stated) + Cc1ccccc1N=Nc1ccc(NC(=O)c2ccnn2C)c(C)c1", "viability, T/C [%]": 93.3}
{"COMPOUND": "O=C(c1cc(Cc2n[nH]c(=O)c3ccccc23)ccc1F)N1CCN(C(=O)C2CC2)CC1 + CC(CO)NC(=O)c1cc(-c2ccc(Cl)cc2)nn(-c2cnn(C)c2)c1=O", "viability, T/C [%]": 116}
{"COMPOUND": "Nc1ccn(C2OC(CO)C(O)C2(F)F)c(=O)n1 (configuration not stated) + Cc1cncc(-c2nc(NCCc3c[nH]c4ccccc34)c3ncn(C(C)C)c3n2)c1", "viability, T/C [%]": 67.6}
{"COMPOUND": "NS(=O)(=O)OCC1CC(n2ccc3c(NC4CCc5ccccc54)ncnc32)CC1O (configuration not stated) + Cc1cncc(-c2nc(NCCc3c[nH]c4ccccc34)c3ncn(C(C)C)c3n2)c1", "viability, T/C [%]": 106}
{"COMPOUND": "CC1(C)CCC(CN2CCN(c3ccc(C(=O)NS(=O)(=O)c4ccc(NCC5CCOCC5)c([N+](=O)[O-])c4)c(Oc4cnc5[nH]ccc5c4)c3)CC2)=C(c2ccc(Cl)cc2)C1 + Cc1ccccc1N=Nc1ccc(NC(=O)c2ccnn2C)c(C)c1", "viability, T/C [%]": 114}
{"COMPOUND": "NS(=O)(=O)OCC1CC(n2ccc3c(NC4CCc5ccccc54)ncnc32)CC1O (configuration not stated) + Cc1ccccc1N=Nc1ccc(NC(=O)c2ccnn2C)c(C)c1", "viability, T/C [%]": 118}
{"COMPOUND": "CC(C)c1c(-c2ccccc2)nc2c(C#N)c[nH]n2c1=O + CC(CO)NC(=O)c1cc(-c2ccc(Cl)cc2)nn(-c2cnn(C)c2)c1=O", "viability, T/C [%]": 91}
{"COMPOUND": "CC1COCCN1c1cc(C2(S(C)(=N)=O)CC2)nc(-c2ccnc3[nH]ccc23)n1 (configuration not stated) + Cc1cncc(-c2nc(NCCc3c[nH]c4ccccc34)c3ncn(C(C)C)c3n2)c1", "viability, T/C [%]": 115}
{"COMPOUND": "COc1cc(Nc2ncc3c(n2)-c2ccc(Cl)cc2C(c2c(F)cccc2OC)=NC3)ccc1C(=O)O + Cc1ccccc1N=Nc1ccc(NC(=O)c2ccnn2C)c(C)c1", "viability, T/C [%]": 81.3}
{"COMPOUND": "COc1ccc([C@@H](O)c2cc(-c3ncnc4cc(N5CCOCC5)ccc34)c(F)cc2Cl)nn1 + Cc1cncc(-c2nc(NCCc3c[nH]c4ccccc34)c3ncn(C(C)C)c3n2)c1", "viability, T/C [%]": 102}

###

Test system: 521955-158-R2-J5-PDC complex spheroid growth
Assay: Anticancer human tumor 521955-158-R2-J5-PDC cell line growth inhibition [AhR];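 for viability, T/C: spheroids mix tumor cells with HUVEC endothelium and human MSC stroma; luminescence taken as viability surrogate after a week of drug exposure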
Conditions: second compound 3.16 µM; first compound 0.00949 µM; stronger effect = lower value
// values below are reported viability, T/C

{"COMPOUND": "CCc1c2c(nc3ccc(O)cc13)-c1cc3c(c(=O)n1C2)COC(=O)[C@]3(O)CC + Cc1cncc(-c2nc(NCCc3c[nH]c4ccccc34)c3ncn(C(C)C)c3n2)c1", "TEST_TARGET": "521955-158-R2-J5-PDC complex spheroid growth", "UNIT_OF_MEASURE": "%", "viability, T/C": 29.7}
{"COMPOUND": "CCN(c1cc(-c2ccc(CN3CCOCC3)cc2)cc(C(=O)NCc2c(C)cc(C)[nH]c2=O)c1C)C1CCOCC1 + CC(CO)NC(=O)c1cc(-c2ccc(Cl)cc2)nn(-c2cnn(C)c2)c1=O", "TEST_TARGET": "521955-158-R2-J5-PDC complex spheroid growth", "UNIT_OF_MEASURE": "%", "viability, T/C": 90.6}
{"COMPOUND": "Nc1ncn(C2CC(O)C(CO)S2)c(=O)n1 (stereo not drawn) + Cc1ccccc1N=Nc1ccc(NC(=O)c2ccnn2C)c(C)c1", "TEST_TARGET": "521955-158-R2-J5-PDC complex spheroid growth", "UNIT_OF_MEASURE": "%", "viability, T/C": 125}
